Origin of values: patent US9957271B2

molecular target: SIRT1 (Homo sapiens); assay: Trp mass spectrometry assay of SIRT1 activity; format: biochemical; details: Trp peptide substrate; percent maximum fold activation; read-out: Trp % Fold Act
Sequence (Q96EB6 whole entry): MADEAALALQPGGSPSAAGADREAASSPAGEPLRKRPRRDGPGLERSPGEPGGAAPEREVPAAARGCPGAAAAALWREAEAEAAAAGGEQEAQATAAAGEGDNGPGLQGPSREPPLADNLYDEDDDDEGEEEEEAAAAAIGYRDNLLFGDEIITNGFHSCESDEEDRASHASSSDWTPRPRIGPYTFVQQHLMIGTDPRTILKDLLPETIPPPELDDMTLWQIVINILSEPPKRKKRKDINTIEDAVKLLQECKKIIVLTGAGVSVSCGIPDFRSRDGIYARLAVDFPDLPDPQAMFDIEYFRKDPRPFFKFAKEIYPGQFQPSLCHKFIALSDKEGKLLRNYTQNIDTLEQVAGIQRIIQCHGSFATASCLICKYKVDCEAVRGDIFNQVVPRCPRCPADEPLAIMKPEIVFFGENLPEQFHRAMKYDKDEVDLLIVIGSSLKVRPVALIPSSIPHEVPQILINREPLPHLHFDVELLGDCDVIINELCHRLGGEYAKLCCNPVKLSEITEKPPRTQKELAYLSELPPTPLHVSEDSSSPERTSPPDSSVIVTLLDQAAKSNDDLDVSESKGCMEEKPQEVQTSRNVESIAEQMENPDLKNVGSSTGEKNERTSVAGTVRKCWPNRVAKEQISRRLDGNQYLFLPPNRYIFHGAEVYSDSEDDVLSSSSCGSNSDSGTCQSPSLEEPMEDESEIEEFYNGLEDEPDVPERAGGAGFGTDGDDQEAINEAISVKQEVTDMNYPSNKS
observed.property: Emax

// known answers, use as guide
# molecule, observed.measurement
measured = [
    ("O=C(Nc1cnn2ccc(-c3ccccc3OC(F)(F)F)nc12)c1ccncc1 [Compound 583]", "< 350%"),
    ("Cc1cc2ncc(NC(=O)c3cccc(OCC(O)CO)n3)n2nc1-c1ccccc1C(F)(F)F (stereo not shown) [Compound 449]", "≥ 350%"),
    ("Cc1nn2ccc(-c3ccccc3C(F)(F)F)nc2c1NC(=O)c1ccncn1 [Compound 572]", "< 350%"),
]

For the next question, use this molecule.
QUERY: Fill in the blank: the reported Emax of Cc1cc(-c2ccccc2C(F)(F)F)nn2c(C(=O)Nc3cccnn3)cnc12 [Compound 514] is ____.
RESULT: ≥ 350%
